Entry source: ChEMBL document CHEMBL4321865

Test system: UDP-3-O-acyl-N-acetylglucosamine deacetylase (Escherichia coli K-12), P0A725 [C125S]
Sequence (whole entry): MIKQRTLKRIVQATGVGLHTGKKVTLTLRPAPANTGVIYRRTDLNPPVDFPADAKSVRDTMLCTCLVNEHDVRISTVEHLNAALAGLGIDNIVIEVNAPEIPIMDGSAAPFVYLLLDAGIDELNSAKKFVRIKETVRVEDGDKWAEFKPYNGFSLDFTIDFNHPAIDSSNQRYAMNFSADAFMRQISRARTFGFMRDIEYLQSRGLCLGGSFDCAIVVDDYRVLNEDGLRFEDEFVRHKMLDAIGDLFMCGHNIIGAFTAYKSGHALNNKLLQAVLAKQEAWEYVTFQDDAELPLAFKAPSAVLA
Please go through the items and note down their ΔTm.
Number only, in °C; omit the unit.

Query: Could you share which ΔTm value was measured for C[C@@](CCN1Cc2cc(C#CC#C[C@H]3C[C@@H]3CO)cn2C1=O)(C(=O)NO)S(C)(=O)=O ?
Response: 11.2

Query: Further, for COc1ccc(-c2cn3c(n2)CN(CC[C@](C)(C(=O)NO)S(C)(=O)=O)C3=O)c(F)c1 ?
Response: 6

Query: Further, for CC(C)(O)c1ccc(C#Cc2ccc3c(c2)CN(CC[C@](C)(C(=O)NO)S(C)(=O)=O)C3=O)cc1 ?
Response: 9.5

Query: Further, for C[C@@](CCN1Cc2cc(C#Cc3ccc([C@@H]4C[C@H]4CO)cc3)cn2C1=O)(C(=O)NO)S(C)(=O)=O ?
Response: 12.1

Query: Further, for C[C@@](CCN1Cc2cc(C#Cc3ccc([C@H]4C[C@@H]4CO)cc3)cn2C1=O)(C(=O)NO)S(C)(=O)=O ?
Response: 12.1

Query: Further, for COc1ccc(-c2ccc3c(c2)CN(CC[C@](C)(C(=O)NO)S(C)(=O)=O)C3=O)c(F)c1 ?
Response: 9.1

Query: Further, for C[C@@](CCN1Cc2cc(C#CC#C[C@@H]3C[C@H]3CO)cn2C1=O)(C(=O)NO)S(C)(=O)=O ?
Response: 10.8

Query: Further, for COc1ccc(-c2ccc3c(c2)oc(=O)n3CC[C@](C)(C(=O)NO)S(C)(=O)=O)c(F)c1 ?
Response: 8.2

Query: Further, for CC(C)(O)C#CC#Cc1ccc2c(c1)CN(CC[C@](C)(C(=O)NO)S(C)(=O)=O)C2=O ?
Response: 8.5

Query: Further, for C[C@@](CCN1Cc2cc(C#Cc3ccc(C4(CO)CC4)cc3)cn2C1=O)(C(=O)NO)S(C)(=O)=O ?
Response: 11.8

Query: Further, for C[C@@](CCN1Cc2cc(C#CC#C[C@H]3C[C@@H]3CO)sc2C1=O)(C(=O)NO)S(C)(=O)=O ?
Response: 12.2

Query: Further, for C[C@@](CCN1Cc2cc(C#Cc3ccc(CN4CCOCC4)cc3)cn2C1=O)(C(=O)NO)S(C)(=O)=O ?
Response: 11.9

Query: Further, for C[C@@](CCN1Cc2cc(C#CC#CC3(O)COC3)sc2C1=O)(C(=O)NO)S(C)(=O)=O ?
Response: 7.4

====

test system: Escherichia coli; assay: microbe, parasite or virus in culture; details: ATCC 25922
Description: Antibacterial activity against wild-type Escherichia coli ATCC 25922 by broth microdilution method
metric: MIC

Query: Could you share which MIC value was measured for C[C@@](CCN1Cc2cc(C#CC#C[C@@H]3C[C@H]3CO)cn2C1=O)(C(=O)NO)S(C)(=O)=O ?
Response: 0.12 µg/mL

Query: Further, for C[C@@](CCN1Cc2cc(C#CC#C[C@H]3C[C@@H]3CO)sc2C1=O)(C(=O)NO)S(C)(=O)=O ?
Response: 0.15 µg/mL

Query: Further, for C[C@@](CCN1Cc2cc(C#CC#C[C@H]3C[C@@H]3CO)cn2C1=O)(C(=O)NO)S(C)(=O)=O ?
Response: 0.12 µg/mL

Query: Further, for COc1ccc(-c2cn(CC[C@@](C)(C(=O)NO)S(C)(=O)=O)c(=O)o2)c(F)c1 ?
Response: > 32 µg/mL
